Recorded values, source PubChem BioAssay (NCI).

Tested on: ACHN renal
Procedure summary: NCI-60 one-dose screen, 48 h (100 = growth as untreated, 0 = no growth, -100 = all killed)
Measurement setup: 10 µM unless noted
Compounds without any hit were thinned out: in the full panel of roughly 83,000, 20% have a hit.
Observed property: growth (%)
Output spec: scalar in %, unitless text.

Example entries begin here.
Molecule	growth (%)
COc1ccc2cc(-c3ccnc4c(N=Nc5ccc(Cl)cc5)c(N)nn34)ccc2c1	100
COc1ccc(/C(C)=C(\c2ccc(Cl)cc2)c2ccc(OCCN3CCCCC3)cc2)cc1	77.3
O=C(/C=C/c1ccc(Cl)cc1)c1cccc(OCCCOc2cccc(C(=O)/C=C/c3ccc(Cl)cc3)c2)c1	99.6

Prompt line: Please give the documented growth of NS(=O)(=O)c1ccc(NC(=O)/C(=C\c2ccc(Cl)cc2Cl)NC(=O)c2ccccc2)cc1
Response line: 98.2

Prompt line: Please indicate growth recorded for CCOC(=O)c1c(C)nc2c(c1N)CC(=O)N2Cc1ccc(OC)cc1
Response line: 28.4

Prompt line: Return reported growth. Input molecule: CC(=C(c1ccc(OCCN2CCCCC2)cc1)c1ccc(OCCN2CCCCC2)cc1)c1ccc(Cl)cc1
Response line: -99.1

Prompt line: Output measured growth for this item: O=C1/C(=C/c2ccc(O)c(O)c2)COc2ccc(-c3ccccc3)cc21
Response line: 15.3

Prompt line: Tell me growth reported for CCN1C(=O)N(CC)C2C1NC(=S)N2/N=C/c1ccc(C(F)(F)F)cc1 (stereo not drawn)
Response line: 79

* * *

Test system: NCI-H23 lung
Procedure summary: NCI-60 one-dose screen, 48 h (100 = growth as untreated, 0 = no growth, -100 = all killed)
Measurement setup: 10 µM unless noted
Compounds without any hit were thinned out: in the full panel of roughly 83,000, 20% have a hit.
growth under 60% gets 1, anything at or over 60% gets 0.

Prompt line: Identify whether the compound Nc1c(C(=O)Nc2cccc(Cl)c2)sc2nc3c(cc12)CCCC3 records growth below 60%.
Response line: 0

Prompt line: Please indicate whether the reported growth of O=S(=O)(Nc1cc(Sc2cccc3cccnc23)c(O)c2ccccc12)c1ccccc1 is strictly below 60%.
Response line: 1

* * *

Listed below: growth values for each entry.
System: ACHN renal
Procedure summary: NCI-60 one-dose screen, 48 h (100 = growth as untreated, 0 = no growth, -100 = all killed)
Measurement setup: 10 µM unless noted
Compounds without any hit were thinned out: in the full panel of roughly 83,000, 20% have a hit.
Expressed in %, but write only the number.

Compound	System name	Reading unit	growth
Cc1ccc(/C=C/C(=O)c2cccc(OCCCOc3cccc(C(=O)/C=C/c4ccc(C)cc4)c3)c2)cc1	ACHN renal	%	78.6

Prompt line: Indicate the recorded growth value for this compound: CCN1CCN(CCNc2nccc(-c3c(-c4ccc(F)c(OC)c4)nc4sccn34)n2)S1(=O)=O
Response line: 59.6

Prompt line: Dear colleague, please send me the reported growth for N#C/C(=C\c1ccc(-c2cccc(C(F)(F)F)c2)o1)c1ccccc1 when you can.
Response line: 85.2

Prompt line: // Input: C=C1CC[C@@H]2[C@](C)(COC(C)=O)[C@H](OC(C)=O)CC[C@@]2(C)[C@@H]1CC(Nc1ccc(S(=O)(=O)NC(C)=O)cc1)C1=CCOC1=O (some centres undefined) . Output its growth only.
Response line: -63.2

Prompt line: Identify measured growth corresponding to COc1cc(NC(=O)c2cncnc2Nc2ccc3c(ccn3Cc3ccccn3)c2)cc(OC)c1
Response line: 66.5

Prompt line: For the compound CCN1C(=O)N(CC)C2C1NN=c1s/c(=C\c3ccc(C(F)(F)F)cc3)c(=O)n12 (centres undefined) , give its reported growth.
Response line: 27.6
